test system: TNFα release from THP-1 cells stimulated with lipopolysaccharide (LPS); experiment: Inhibition of TNFα release from THP-1 cells stimulated with lipopolysaccharide (LPS); format: cell-based; set-up: key: A: ≤2,000; B: >2,000; C: Inconclusive (e.g., no data or no activity observed)
QUANTITY_NAME: TNF EC50

Solved cases below.
| COMPOUND | TNF EC50 |
| --- | --- |
| O=c1ccc2cc(Br)ccc2n1-c1ccccc1 [Compound 33] | C |
| O=c1ccc(C(F)F)cn1-c1ccc(O)cc1 [Compound 29] | C |
| CC(=O)c1ccc(=O)n(-c2ccccc2)c1 [Compound 16, 1-phenyl-5-acetyl-2-pyridone] | C |
| COc1ccc(-n2cc(C(F)(F)F)ccc2=O)cc1 [Compound 15] | C |
| O=c1ccc(-c2ccccc2)cn1-c1ccccc1 [Compound 17] | C |

// TNF EC50 lookup, key: COC(=O)c1ccc(=O)n(-c2ccccc2)c1 [Compound 24] C

For the compound shown here, Cc1ccc(=S)n(-c2ccccc2)c1 [Compound 18, 1-phenyl-5-methyl-2-pyridinethione] , give the reported TNF EC50. C

Please report the recorded TNF EC50 for O=c1ccc(CF)cn1-c1ccc(O)cc1 [Compound 28] . C

Query: TNF EC50; subject: O=c1ccc(C(F)(F)F)cn1-c1ccc(F)cc1 [Compound 12] C

Fill blank: measured TNF EC50 of the compound O=c1ccccn1-c1ccc(O)cc1 [Compound 9] is ____. C

I'd like to know its TNF EC50. The compound in question is O=C(O)c1ccc(=O)n(-c2ccccc2)c1 [Compound 2] C

Values were extracted from patent US10010536B2.
